Biological target: human TRPV4 (Homo sapiens, UniProt Q9HBA0)
Construct: host or cells: tetracycline-inducible Flp-In T-REx 293 cells
Sequence (Q9HBA0 whole entry): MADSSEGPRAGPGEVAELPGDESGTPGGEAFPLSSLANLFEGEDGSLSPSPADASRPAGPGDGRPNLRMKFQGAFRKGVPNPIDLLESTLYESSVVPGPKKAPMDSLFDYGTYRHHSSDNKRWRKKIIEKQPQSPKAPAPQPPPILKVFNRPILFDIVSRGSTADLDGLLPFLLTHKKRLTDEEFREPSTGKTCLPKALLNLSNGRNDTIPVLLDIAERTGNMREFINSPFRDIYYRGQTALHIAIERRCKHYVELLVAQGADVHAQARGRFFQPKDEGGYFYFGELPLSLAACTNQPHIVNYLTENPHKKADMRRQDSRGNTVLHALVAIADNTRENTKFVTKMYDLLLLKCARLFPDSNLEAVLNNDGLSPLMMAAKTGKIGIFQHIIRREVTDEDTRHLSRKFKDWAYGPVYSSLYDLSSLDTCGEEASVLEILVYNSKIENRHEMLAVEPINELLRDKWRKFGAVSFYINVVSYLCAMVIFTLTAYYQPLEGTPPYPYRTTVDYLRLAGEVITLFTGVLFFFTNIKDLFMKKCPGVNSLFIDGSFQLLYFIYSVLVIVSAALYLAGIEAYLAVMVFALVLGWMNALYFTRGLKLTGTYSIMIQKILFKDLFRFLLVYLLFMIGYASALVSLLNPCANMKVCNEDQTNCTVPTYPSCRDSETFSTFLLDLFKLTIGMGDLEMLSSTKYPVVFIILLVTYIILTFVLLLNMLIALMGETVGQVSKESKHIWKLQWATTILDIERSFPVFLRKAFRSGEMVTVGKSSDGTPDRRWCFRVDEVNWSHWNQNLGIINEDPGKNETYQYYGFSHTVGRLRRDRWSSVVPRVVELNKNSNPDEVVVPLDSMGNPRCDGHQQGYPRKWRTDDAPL
Assay: Hypotonicity-induced Ca2+ influx (Fluo-4, FDSS)
Type: cell-based
Details: Flp-In T-REx 293 cells stably expressing human TRPV4, compounds listed by potency bin (<10 nM Tables 96-1/96-2, <3 nM Table 97)

>  <Molecule>
CC(C(=O)N1CCCc2nc(C3(c4cccc(F)c4)CC3)[nH]c(=O)c2C1)c1cccc(C(F)(F)F)c1 (stereo not drawn)

>  <IC50>
< 10 nM

$$$$
>  <Molecule>
O=C([C@H](O)c1cccc(-c2cc3ccccc3s2)c1)N1CCc2nc(C3(c4ccccc4)CC3)[nH]c(=O)c2C1

>  <IC50>
< 3 nM

$$$$
>  <Molecule>
CC(C)c1csc(C2(c3nc4c(c(=O)[nH]3)CN(C(=O)C(F)(F)c3cccc(C(F)(F)F)c3)CC4)CC2)c1

>  <IC50>
< 10 nM

$$$$
>  <Molecule>
O=C([C@H](O)c1cccc(C(F)(F)F)c1)N1CCCc2nc(C3(c4cccc(C5CCCC5)c4)CC3)[nH]c(=O)c2C1

>  <IC50>
< 3 nM

$$$$
>  <Molecule>
O=C([C@H](O)c1cccc(-c2cccc(SC(F)(F)F)c2)c1)N1CCCc2nc(C3(c4ccccc4)CC3)[nH]c(=O)c2C1

>  <IC50>
< 10 nM

$$$$
>  <Molecule>
CC(C)c1csc(C2(c3nc4c(c(=O)[nH]3)CN(C(=O)[C@H](O)c3cccc(-c5cccc(F)c5)c3)CCC4)CC2)c1

>  <IC50>
< 3 nM

$$$$
>  <Molecule>
O=C(C(O)c1cccc(-c2cccc(C3CC3)c2)n1)N1CCc2nc(C3(c4ccccc4)CC3)[nH]c(=O)c2C1 (stereo not drawn)

>  <IC50>
< 10 nM

$$$$
>  <Molecule>
O=C(Cc1cccc(-c2cccc(F)c2)c1)N1CCCc2nc(C3(c4ccccc4)CC3)[nH]c(=O)c2C1

>  <IC50>
< 10 nM

$$$$
>  <Molecule>
O=C(C(O)c1cccc(OCc2ccccc2)c1)N1CCCc2nc(C3(c4ccccc4)CC3)[nH]c(=O)c2C1 (stereo not drawn)

>  <IC50>
< 10 nM

$$$$
>  <Molecule>
O=C([C@H](O)c1cccc(-c2ccnc(C(F)(F)F)c2)c1)N1CCc2nc(C3(c4ccccc4)CC3)[nH]c(=O)c2C1

>  <IC50>
< 3 nM

$$$$
>  <Molecule>
O=C([C@H](O)c1cccc(C(F)(F)F)c1F)N1CCCc2nc(C3(c4cncc(-c5ccccc5)c4)CC3)[nH]c(=O)c2C1

>  <IC50>
< 10 nM

$$$$
>  <Molecule>
O=C([C@H](O)c1cccc(C(F)(F)F)c1)N1CCCc2nc(C3(c4cccc(F)c4)CC3)[nH]c(=O)c2C1

>  <IC50>
< 10 nM

$$$$
>  <Molecule>
O=C([C@H](O)c1cccc(-c2cccc(Cl)c2)c1)N1CCCc2nc(C3(c4ccccc4)CC3)[nH]c(=O)c2C1

>  <IC50>
< 3 nM

$$$$
>  <Molecule>
CC(C)c1csc(C2(c3nc4c(c(=O)[nH]3)CN(C(=O)[C@H](O)c3cccc(-c5cccc(OC(F)(F)F)c5)c3)CCC4)CC2)c1

>  <IC50>
< 10 nM

$$$$
>  <Molecule>
O=C([C@H](O)c1cccc(Cl)c1)N1CCc2nc(C3(c4cc(C5CCCCC5)cs4)CC3)[nH]c(=O)c2C1

>  <IC50>
< 10 nM

$$$$
>  <Molecule>
O=C(C(O)c1cccc(-c2cc(F)cc(Cl)c2)c1)N1CCCc2nc(C3(c4ccccc4)CC3)[nH]c(=O)c2C1 (stereo not drawn)

>  <IC50>
< 10 nM

$$$$
>  <Molecule>
O=C(N1CCCc2nc(C3(c4cncc(-c5ccccc5)c4)CC3)[nH]c(=O)c2C1)C(F)(F)c1cccc(Cl)c1F

>  <IC50>
< 3 nM

$$$$
>  <Molecule>
O=C(N1CCCc2nc(C3(c4cccc(F)c4)CC3)[nH]c(=O)c2C1)C(F)(F)c1cccc(Cl)c1

>  <IC50>
< 3 nM

$$$$
>  <Molecule>
O=C([C@H](O)c1cccc(C(F)(F)F)c1)N1CCCc2nc(C3(c4cccc(C5CCC(F)(F)CC5)c4)CC3)[nH]c(=O)c2C1

>  <IC50>
< 3 nM

$$$$
>  <Molecule>
CN(Cc1ccc(-c2cccc(C3(c4nc5c(c(=O)[nH]4)CN(C(=O)[C@H](O)c4cccc(C(F)(F)F)c4)CCC5)CC3)c2)cc1)C(=O)N1CCCCC1

>  <IC50>
< 10 nM

$$$$
>  <Molecule>
O=C([C@H](O)c1cccc(-c2cc(Cl)cc(C(F)(F)F)c2)c1)N1CCCc2nc(C3(c4cccc(Cl)c4)CC3)[nH]c(=O)c2C1

>  <IC50>
< 10 nM

$$$$
>  <Molecule>
O=C([C@H](O)c1cccc(C(F)(F)F)c1)N1CCCc2nc(C3(c4cccc(-c5cccc6ccccc56)c4)CC3)[nH]c(=O)c2C1

>  <IC50>
< 10 nM

$$$$
>  <Molecule>
O=C([C@H](O)c1cccc(Cl)c1)N1CCCc2nc(C3(c4cc(C5CCCC5)cs4)CC3)[nH]c(=O)c2C1

>  <IC50>
< 3 nM

$$$$
>  <Molecule>
O=C([C@H](O)c1cccc(-c2ccc(Cl)c(OC(F)(F)F)c2)c1)N1CCCc2nc(C3(c4ccccc4)CC3)[nH]c(=O)c2C1

>  <IC50>
< 10 nM

$$$$
>  <Molecule>
O=C([C@H](O)c1cccc(-c2cccc(C3CC3)c2)c1)N1CCCc2nc(C3(c4ccccc4)CC3)[nH]c(=O)c2C1

>  <IC50>
< 10 nM

$$$$
>  <Molecule>
CC(C)c1cncc(C2(c3nc4c(c(=O)[nH]3)CN(C(=O)[C@H](O)c3cccc(-c5cccc(C(C)(C)C)c5)c3)CCC4)CC2)c1

>  <IC50>
< 10 nM

$$$$
>  <Molecule>
CN(C)C(=O)c1cccc(-c2cccc(C3(c4nc5c(c(=O)[nH]4)CN(C(=O)[C@H](O)c4cccc(C(F)(F)F)c4)CCC5)CC3)c2)c1

>  <IC50>
< 10 nM

$$$$

---

Molecular target: human TRPV4 (Homo sapiens)
Construct: host or cells: tetracycline-inducible Flp-In T-REx 293 cells
Experiment: Hypotonicity-induced Ca2+ influx (Fluo-4, FDSS)
Assay type: cell-based
Settings: Flp-In T-REx 293 cells expressing human TRPV4, examples listed under heading 'Human IC50<50 nM'
List of IC50 values.

>  <Molecule>
O=C([C@H](O)c1cccc(C(F)(F)F)c1)N1CCCc2nc(C3(c4cccc(C5=CCN(C(=O)C6(c7cccc(C(F)(F)F)c7)CC6)CC5)c4)CC3)[nH]c(=O)c2C1 [42-83]

>  <IC50>
< 50 nM

$$$$
>  <Molecule>
CC(C)(C)c1cccc(CC(=O)N2CCCc3nc(C4(c5cccc(Cl)c5)CC4)[nH]c(=O)c3C2)c1 [17-141]

>  <IC50>
< 50 nM

$$$$
>  <Molecule>
N#Cc1cncc(-c2cccc(C3(c4nc5c(c(=O)[nH]4)CN(C(=O)[C@H](O)c4cccc(C(F)(F)F)c4)CCC5)CC3)c2)c1 [42-19]

>  <IC50>
< 50 nM

$$$$
>  <Molecule>
O=C([C@H](O)c1cccc(C(F)(F)F)c1)N1CCCc2nc(C3(c4cccc(C5=CCN(S(=O)(=O)C6CCCCC6)CC5)c4)CC3)[nH]c(=O)c2C1 [42-76]

>  <IC50>
< 50 nM

$$$$
>  <Molecule>
O=C(C(O)c1cccc(-c2cccc(Cl)c2)c1)N1CCCc2nc(C3(c4ccccc4)CC3)[nH]c(=O)c2C1 (stereo not drawn) [49-6]

>  <IC50>
< 50 nM

$$$$
>  <Molecule>
O=C(C(O)c1ccnc(N2CCCCCC2)c1)N1CCc2nc(C3(c4ccccc4)CC3)[nH]c(=O)c2C1 (stereo not drawn) [11-3]

>  <IC50>
< 50 nM

$$$$

---

Target: human TRPV4 (Homo sapiens, UniProt Q9HBA0)
Construct: host or cells: tetracycline-inducible Flp-In T-REx 293 cells
Assay: Hypotonicity-induced Ca2+ influx (Fluo-4, FDSS)
Assay type: cell-based
Conditions: Flp-In T-REx 293 cells stably expressing human TRPV4, compounds listed by potency bin (<10 nM Tables 96-1/96-2, <3 nM Table 97)
Method: Hypotonicity-Induced Ca^2+ Influx TRPV4 channel activation/opening results in an influx of Ca^2+ (Liedtke, W. et al., 2000 (NPL 1)). The resulting changes in intracellular calcium are monitored using a Ca^2+ sensitive fluorescent dye Fluo-4 (Invitrogen). Dye loaded cells are treated with the test compounds for 5 minutes prior to the addition of a hypotonic solution and the inhibition of the hypotonicity-induced activation is recorded. […]
pIC50: −log10 of the molar value.
Property: pIC50

>  <Compound>
O=C(C(O)c1cccc(-c2ccc(F)c(Cl)c2)c1)N1CCc2nc(C3(c4ccccc4)CC3)[nH]c(=O)c2C1 (stereo not shown)

>  <Measured value>
> 8.00

$$$$
>  <Compound>
O=C(C(O)c1cccc(-c2cccc(F)c2)c1)N1CCCc2nc(C3(c4ccccc4)CC3)[nH]c(=O)c2C1 (stereo not shown)

>  <Measured value>
> 8.00

$$$$
>  <Compound>
O=C(C(O)c1cccc(Oc2cccc(C(F)(F)F)c2)c1)N1CCCc2nc(C3(c4ccccc4)CC3)[nH]c(=O)c2C1 (stereo not shown)

>  <Measured value>
> 8.52

$$$$
>  <Compound>
O=C(C(O)c1cccc(-c2cccc(C(F)(F)F)c2)c1)N1CCc2nc(C3(c4ccccc4)CC3)[nH]c(=O)c2C1 (stereo not shown)

>  <Measured value>
> 8.00

$$$$
